# Tested on: HCT-116 colon
# protocol-details: NCI tumour cell line growth inhibition, 48 h
quantity-kind: TGI

C[C@]12CCC(=O)C(O)=C1CC[C@@H]1C2CC[C@]2(C)NC(=O)CCC12 (stereo partly specified) = > 100 µM
Cc1c(S(=O)(=O)O)ccc(N=Nc2c(O)c(C(=O)O)cc3ccccc23)c1Cl = > 100 µM
O=C1/C(=C/c2ccc(OC(=O)c3ccccc3)cc2)CCC/C1=C\c1ccc(OC(=O)c2ccccc2)cc1 = > 100 µM
C=C1C(=O)O[C@@H]2[C@@H]3O[C@@H](C[C@@H]13)[C@](C)(O)CC/C=C(\C)CCC[C@@H]2C = 21.2 µM
O=C(O)C1CCCCC1C(=O)Nn1cnnc1 (stereo unspecified) = > 100 µM
Nn1c(CCCCCCCCc2nnc(COc3ccc4ccccc4c3O)n2N)nnc1COc1ccc2ccccc2c1O = 29.3 µM

Please give TGI for each item listed below.
1. O=S(=O)(c1ccccc1)C(c1ccc2ccccc2n1)S(=O)(=O)c1ccccc1
2. C/C(=N\n1c(Cc2ccccc2)n[nH]c1=O)c1ccccc1
3. CC(O)c1cc2c(s1)C(=O)c1ccsc1C2=O (stereo unspecified)
4. COc1cc(OC)c(SSCCCCS(=O)O)c(OC)c1
5. COc1ccc(-c2cc(=O)c3ccccc3o2)cc1N

Result:
1: > 100 µM; 2: > 100 µM; 3: 2.72 µM; 4: 29.9 µM; 5: > 100 µM

###

So I've got a bunch of compounds here, and I need their TGI values.
# System: LOX IMVI melanoma
# protocol-details: NCI tumour cell line growth inhibition, 48 h
One number for each entry, in µM.

N#CC(C#N)=C/C=C(\Sc1c(Cl)c(Cl)nc(Cl)c1Cl)c1ccc(Cl)cc1 = 20.5
Cc1ccc(Cc2cnc(NC(=O)/C=C/c3cccc(C)c3)s2)cc1 = 7.4

List TGI for every entry below, keeping the order given.
1. COc1cc(-c2ccc(-c3ccc(C(=N)N)nc3)s2)cc(OC)c1OC
2. COC(=O)C1=CSC2(S1)C(C(=O)OC)=CSc1c2ssc1=O (stereo not given)
3. C=C1C(=O)OC2C1CCC(C)C1C=CC(=O)C12C (stereo not given)
4. CCOC(=O)N1c2c(ccn2C)-c2ccn(C)c2N1C(=O)OCC

Result:
3.48
3.35
5.25
25.6

###

Task for the reader: assign each of the following molecules its reported GI50.
# System: OVCAR-4 ovarian
# protocol-details: NCI tumour cell line growth inhibition, 48 h

Cc1nc2sc(C(=O)Nc3cccc4ccccc34)c(N)c2cc1C(O)c1ccccc1 (centres undefined) = 0.215 µM
C[C@]12CC[C@@H]3c4cc(-c5ccc(F)cc5)c(O)cc4CC[C@H]3[C@@H]1CC[C@@H]2O = 4.04 µM
COc1cccc(/C=C/[N+](=O)[O-])c1 = 15.5 µM
COC(=O)CC[C@]1(C)O[C@H]2[C@H]([C@@H](C)CCCC(C)=O)OC(=O)[C@@H]2C[C@H]1O = > 100 µM
CCCN(CCC)c1ccc(/C=C/c2ccc3cc(OCC)ccc3n2)cc1 = 72.7 µM

// for each molecule below, give its GI50
1. CCC(=O)Nc1ccccc1C#C/C=C\C#Cc1ccccc1SC
2. O=C(O)c1ccc(Oc2nccc(-c3c(-c4ccc(F)cc4)ncn3C3CCNCC3)n2)cc1
3. COc1cc2c(cc1OC)-c1ccc3cc4c(cc3c1N(CCCn1ccnc1)C2)OCO4
4. CC(=O)N1C/C(=C/c2ccc(Cl)cc2)C(=O)/C(=C/c2ccc(Cl)cc2)C1

Result:
1. 30.1 µM
2. > 25 µM
3. 4.81 µM
4. 0.795 µM
